// provenance: patent US20240316042A1

- run-description: Phase 1 open-label study in pediatric pcJIA patients: pharmacokinetics at steady state (Day 7)
- Assay type: in vivo, human
- condition-set: human, plasma, oral, pcJIA Group 3: 6 to <12 years, low dose, BID solution; Day 7; read-out: Functional t1/2, harmonic mean (converted)
measured-quantity: half-life (min)
// units = min; emit number, no label

Problem: Consider the compound "CC[C@@H]1CN(C(=O)NCC(F)(F)F)C[C@@H]1c1cnc2cnc3[nH]ccc3n12" and give its recorded half-life.
Solution: 143

###

- run-description: Phase 1 open-label study in pediatric subjects with severe atopic dermatitis: pharmacokinetics on Day 7
- Format: in vivo, human
- condition-set: human, plasma, oral, AD Cohort 1: 6 to <12 years, Low Dose, IR Solution; Day 7; read-out: t1/2, harmonic mean (pseudo standard deviation) (converted)
measured-quantity: half-life (h)
// units = h; emit number, no label

Problem: Consider the compound CC[C@@H]1CN(C(=O)NCC(F)(F)F)C[C@@H]1c1cnc2cnc3[nH]ccc3n12 [upadacitinib] and give its recorded half-life.
Solution: 2.35
